Reference source: ChEMBL document CHEMBL1159036

Here's what we have: IC50 numbers for Alkaline phosphatase, tissue-nonspecific isozyme (Homo sapiens).

Lab note: measured IC50 of COc1ccc(-n2nnnc2SCC(=O)c2ccc(O)c(O)c2)cc1 was 8 µM

Lab note: measured IC50 of O=C(Cn1ccnc1)c1ccc(O)c(O)c1 was > 100 µM

Lab note: measured IC50 of Cc1cnn(CC(=O)c2ccc(O)c(O)c2)c1 was > 100 µM

Lab note: measured IC50 of O=C(Cn1cnnc1)c1ccc(O)c(O)c1 was > 100 µM

Lab note: measured IC50 of CC(C)NCC(=O)c1ccc(O)c(O)c1 was > 100 µM

Lab note: measured IC50 of CCc1nccn1CC(=O)c1ccc(O)c(O)c1 was > 100 µM

Lab note: measured IC50 of Cc1nc(Br)cn1CC(=O)c1ccc(O)c(O)c1 was 8.7 µM

Lab note: measured IC50 of O=C(Cn1cnc2ccccc21)c1ccc(O)c(O)c1 was 18 µM

---

Consider the following compounds; for each one, report its Ratio IC50.
- protocol.description: Selectivity ratio of IC50 for TNAP to IC50 for PLAP
Returns: the value as a bare number; no unit string appended.

Lab note: measured Ratio IC50 of Cc1cn(CC(=O)c2ccc(O)c(O)c2)cn1 was 7

Lab note: measured Ratio IC50 of Cc1nc(Br)cn1CC(=O)c1ccc(O)c(O)c1 was 1.7
